Where a name gives a salt, the structure may show the parent alone.
// melting point lookup, one value per entry

molecule	melting point
CCC1(CCCCCN2CCc3sc(Cl)cc3C2)C(=O)Nc2ccccc21 (stereo not drawn) (as salt: hydrochloride) [Example 37, monohydrochloride]	96 to 98 °C
CCC1(CCCCN2CC=C(c3ccc(F)cc3)CC2)C(=O)Nc2ccccc21 (stereo not drawn) (as salt: hydrochloride) [Example 39, monohydrochloride]	108 to 111 °C
CCC1(CCCCN2CCc3sccc3C2)C(=O)Nc2cc(F)c(Cl)cc21 (stereo not drawn) [Example 35]	155 to 157 °C
CCC1(CCCCN2CCc3sccc3C2)C(=O)Nc2ccc(C)cc21 (stereo not drawn) [Example 30]	138 to 140 °C
CCC1(CCCCN2CCc3sc(Cl)cc3C2)C(=O)Nc2ccccc21 (stereo not drawn) [Example 34]	117 to 119 °C
CCC1(CCCCN2CCc3sccc3C2)C(=O)Nc2ccc(Br)cc21 (stereo not drawn) [Example 27]	149 to 151 °C
